Test system: GT3TKB;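 further: growth inhibition of the cell line, read out with a cell viability assay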
assayRemarks: cells
Assay type: functional, cell-based, Homo sapiens
conditionDetails: Homo sapiens, GT3TKB
Description: SANGER: Inhibition of human GT3TKB cell growth in a cell viability assay.
Would you mind telling me the reported IC50 of each entry?

Which IC50 value is on record for NC(=O)c1ccc(N(C(N)=O)c2c(F)cccc2F)nc1-c1ccc(F)cc1F [VX-702] ?
> 2 µM

Which IC50 value is on record for O=S(=O)(O)c1ccc2cc(/N=N/c3cc(S(=O)(=O)O)c4cccnc4c3O)ccc2c1 ?
> 16 µM

Which IC50 value is on record for NC1(c2ccc(-c3nc4ccn5c(=O)[nH]nc5c4cc3-c3ccccc3)cc2)CCC1 [MK-2206] ?
> 4 µM

Which IC50 value is on record for OC[C@H](Cc1ccccc1)Nc1nc(Oc2ccc3c(c2)CCC3)nc2c1ncn2Cc1ccc(-c2ccccc2)cc1 ?
> 10.2 µM

Which IC50 value is on record for COc1ccc(-c2cc3nccn3c(Nc3ncccc3C(N)=O)n2)cc1OC ?
> 8 µM

Which IC50 value is on record for COC(=O)[C@H](CCSC)NC(=O)c1ccc(NC[C@@H](N)CS)cc1-c1ccccc1 ?
> 1.02 µM

----------
Test system: KLE
assayRemarks: cells
Assay type: functional, cell-based
conditionDetails: Homo sapiens
Description: SANGER: Inhibition of human KLE cell growth in a cell viability assay.
pIC50: −log10 of the molar value.
parameterMeasured: pIC50

Which pIC50 value is on record for CC1=C(/C=C/C(C)=C/C=C/C(C)=C/C(=O)O)C(C)(C)CCC1 ?
< 5.00

Which pIC50 value is on record for NC(=O)c1cccc(-c2cc(Nc3ccc(OC(F)(F)F)cc3)ncn2)c1 ?
< 5.89

Which pIC50 value is on record for O=C1NC(=O)c2c1c(-c1ccccc1Cl)cc1[nH]c3ccc(O)cc3c21 ?
< 5.70
